Hey, just so you know, these numbers are from paper PMC10999543.

Test system: HeLa cells
assayText: Compound screen by flow cytometry: HeLa cell count as surrogate readout of cell viability (z-scoreHeLa); note: test concentration or dose not given here
Assay type: cell-based, human
experimentalConditions: PKIS compound screen, replicate 3
Documented z-scoreHeLa rep 3 across a set of compounds

> print(dat)
                                   compound  experimentalresult
1  COC(=O)c1cccc(NC(=O)NC2CCN(c3ccnc(Nc4ccc(OC)cc4)n3)C2)c1 (stereo not shown) [GSK1379746A]               -0.44

Asked: Which z-scoreHeLa rep 3 reading was recorded for the compound Cc1cccc(-c2nc(Nc3cccc(C(N)=O)c3)c3ccccc3n2)n1 [GW876019X] ?
Given back: -1.32

Asked: Please look up its z-scoreHeLa rep 3: Fc1cc(Cl)ccc1Nc1ccnc2cc(-c3ccc(CN4CCOCC4)o3)ccc12 [GW560109X]
Given back: 1.09

Asked: Given Cc1cccc(Cn2ccn3c(=O)cc(N4CCOCC4)nc23)c1 [GSK2297542A] , state its recorded z-scoreHeLa rep 3.
Given back: 0.91

Asked: Quick one: z-scoreHeLa rep 3 of [O-][S+]1CCN(Cc2ccc(-c3ccc4ncnc(Nc5ccc(OCc6ccccc6)c(Cl)c5)c4c3)o2)CC1 [GW583373A] ?
Given back: 1.44

Asked: Reported z-scoreHeLa rep 3, compound COc1cc(/C=N/Nc2ncnc3[nH]ncc23)ccc1O [GW578748X] : ____
Given back: 0.26

Asked: What value of z-scoreHeLa rep 3 has been recorded for this entry: c1ccc(COc2ccc(Nc3ncnc4ccc(-c5ccco5)cc34)cc2)cc1 [GW284372X]
Given back: 1.13

Asked: Fill in the blank: the reported z-scoreHeLa rep 3 of CC(C)c1nc(-c2cccc(NS(=O)(=O)c3c(F)cccc3F)c2F)c(-c2ccnc(Nc3ccc(N4CCOCC4)nc3)n2)s1 [GSK2008607A] is ____.
Given back: -1.10

Asked: Report z-scoreHeLa rep 3 for Cc1ccc(C(=O)Nc2ccc(Nc3ccnc4cc(-c5nccs5)ccc34)cc2O)cc1 [GW494702A] please.
Given back: 1.50

Asked: Looking for the measured z-scoreHeLa rep 3 of COc1cc(Nc2nccc(N3CCC(NC(=O)C(C)c4ccc(Cl)cc4)C3)n2)cc(OC)c1OC (stereo not shown) [GSK1379757A] , can you help?
Given back: 0.29

Asked: Could you share which z-scoreHeLa rep 3 value was measured for COc1ccc(CNC(=O)NC2CCN(c3ccnc(Nc4ccc(OC)cc4)n3)C2)cc1 (stereo not shown) [GSK1379727A] ?
Given back: 0.62

Asked: Query (compound): CC(C)c1nc(-c2ccc(F)c(NS(=O)(=O)c3c(F)cccc3F)c2)c(-c2ccnc(Nc3ccc(N4CCOCC4)nc3)n2)s1 [GSK1804250A] ; field requested: z-scoreHeLa rep 3
Given back: -0.90

Asked: I'd like to know its z-scoreHeLa rep 3. The compound in question is O=C(Nc1n[nH]c2nc(-c3ccccc3)c(Br)cc12)C1CC1 [SB-708998]
Given back: 0.46

Asked: What does the data say about its z-scoreHeLa rep 3? Entry: Cc1cc(NCC(c2ccccc2)c2ccccc2)nc(NCc2ccc(C(F)(F)F)cc2)n1 [GW497681X]
Given back: -1.91

Asked: Suppose we examine the compound Cn1cncc1-c1cc2c(Nc3ccc(OCc4ccccc4)cc3)ncnc2cn1 [GW281179X] ; what z-scoreHeLa rep 3 value has been reported?
Given back: -0.79

Asked: What z-scoreHeLa rep 3 value was documented for this compound, c1ccc(-c2ccc3c(Nc4ccc5[nH]ccc5c4)ccnc3c2)nc1 [GW440138A] ?
Given back: 1.48
